Test system: MDA-MB-231 breast
Experiment: NCI tumour cell line growth inhibition, 48 h
property.measured: log10 TGI (log10 of the value in µM)
On a log10 scale: recorded TGI, unit µM.

Example compounds with recorded log10 TGI:
1) COc1ccc2c(c1)C(=O)c1c-2c(NCCCN(C)C)nc2ccccc12
1.06
2) N#CC(c1ccc(O)cc1)N1CCN(C(C#N)c2ccc(O)cc2)CC1 (stereo unspecified)
1.75
3) O=S(=O)(Nc1ccc(-c2nc(-c3cccc(OCCN4CCOCC4)c3)c(-c3ccnc(Br)c3)[nH]2)cc1)c1ccccc1
1.80
4) C/C(=N\Nc1nc2cc(C)ccc2s1)c1ccccn1
-0.03
5) O=C(CCSC(CC(=O)c1ccc(Cl)cc1)c1ccc(Cl)cc1)Nc1ccc(Cl)cc1 (stereo unspecified)
1.52

For the compound shown here, COCCNCC(O)Cn1c2ccc(Cl)cc2c2cc(Cl)ccc21 (stereo unspecified) , give the reported log10 TGI.
0.53

Continue with C=C1C(=O)O[C@H]2[C@H]1CC/C(COC(=O)OCCCCCOC(=O)OC/C1=C/CC[C@@]3(C)O[C@H]3[C@H]3OC(=O)C(=C)[C@@H]3CC1)=C\CC[C@@]1(C)O[C@@H]21
-0.10

Request: O=C1C=C(SCCO)C(=O)c2ccccc21
0.59

Follow-up entry: O=C1Nc2ccc(F)c3c(OCCO)cc(-c4ccc[nH]4)c1c23
0.98
